test-system: T1, human FcRn/b2M (human, UniProt P61769 21-119, biotinylated)
T1 construct: bought recombinant biotinylated protein (ACRO FCM-H82W4 or Immunitrack ITF01); also called hFcRn; hFcRn/hb2M
protocol-summary: SPR off-rate; pH 7.4 vs pH 6.0;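 also: surface plasmon resonance with diluted periplasmic extracts flowed over ligand surfaces, 120 s association and 600–3600 s dissociation at 25 °C, running buffer containing 150 mM NaCl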
assay-readout: kd ratio pH 7.4/6.0

T0263018B11 D58H (VHH, name in Kabat numbering, FLAG3-His6 tagged) VHH: EVQLVESGGGVVQPGGSLRLSCAASGFTFSSYAMYWVRQAPGKGLEWVSAISSGGGSTHYADSVKGRFTISRDNSKNTLYLQMNSLRPEDTALYYCAADTLYTSLTWYSYWGQGTLVTVSS    7
T0263018B11 T57V (VHH, name in Kabat numbering, FLAG3-His6 tagged) VHH: EVQLVESGGGVVQPGGSLRLSCAASGFTFSSYAMYWVRQAPGKGLEWVSAISSGGGSVDYADSVKGRFTISRDNSKNTLYLQMNSLRPEDTALYYCAADTLYTSLTWYSYWGQGTLVTVSS    44
T0263018B11 A93V (VHH, name in Kabat numbering, FLAG3-His6 tagged) VHH: EVQLVESGGGVVQPGGSLRLSCAASGFTFSSYAMYWVRQAPGKGLEWVSAISSGGGSTDYADSVKGRFTISRDNSKNTLYLQMNSLRPEDTALYYCVADTLYTSLTWYSYWGQGTLVTVSS    50
T0263018B11 S52E (VHH, name in Kabat numbering, FLAG3-His6 tagged) VHH: EVQLVESGGGVVQPGGSLRLSCAASGFTFSSYAMYWVRQAPGKGLEWVSAIESGGGSTDYADSVKGRFTISRDNSKNTLYLQMNSLRPEDTALYYCAADTLYTSLTWYSYWGQGTLVTVSS    16
T0263018B11 Y32V (VHH, name in Kabat numbering, FLAG3-His6 tagged) VHH: EVQLVESGGGVVQPGGSLRLSCAASGFTFSSVAMYWVRQAPGKGLEWVSAISSGGGSTDYADSVKGRFTISRDNSKNTLYLQMNSLRPEDTALYYCAADTLYTSLTWYSYWGQGTLVTVSS    12
T0263018B11 T96A (VHH, name in Kabat numbering, FLAG3-His6 tagged) VHH: EVQLVESGGGVVQPGGSLRLSCAASGFTFSSYAMYWVRQAPGKGLEWVSAISSGGGSTDYADSVKGRFTISRDNSKNTLYLQMNSLRPEDTALYYCAADALYTSLTWYSYWGQGTLVTVSS    36

1. T0263018B11 T96F (VHH, name in Kabat numbering, FLAG3-His6 tagged) VHH: EVQLVESGGGVVQPGGSLRLSCAASGFTFSSYAMYWVRQAPGKGLEWVSAISSGGGSTDYADSVKGRFTISRDNSKNTLYLQMNSLRPEDTALYYCAADFLYTSLTWYSYWGQGTLVTVSS
2. T0263018B11 Y98F (VHH, name in Kabat numbering, FLAG3-His6 tagged) VHH: EVQLVESGGGVVQPGGSLRLSCAASGFTFSSYAMYWVRQAPGKGLEWVSAISSGGGSTDYADSVKGRFTISRDNSKNTLYLQMNSLRPEDTALYYCAADTLFTSLTWYSYWGQGTLVTVSS
-- ask Would you mind telling me which has the lower recorded kd ratio pH 7.4/6.0 between 1 and 2 ? Selection: enter the item's label.
-- reply 1
(1: 52, 2: 75)
